# Test system: A549
# Assay summary: NCI tumour cell line growth inhibition, 48 h
The source made the active and inactive calls. Rule as the data show it: active = GI50 up to about 1.1 µM and inactive = higher.
Quantity measured: GI50

# returns recorded GI50 (system: A549) for Cc1c(C#N)c(N)n(C2OC(CO)C(O)C(O)C2O)c(=S)c1C#N (centres undefined) > 100 µM (inactive)

Also `CCNC(=O)c1ccc(C)c(/N=N/N(C)C)c1` , if possible. > 100 µM (inactive)

Also `CC1=C[C@H](O)[C@@]2(C)[C@@H]([C@@H]1C)[C@H]1CC[C@@H]3[C@@]4(C)CC[C@H](O)C(C)(C)[C@@H]4CC[C@@]3(C)[C@]1(C)C[C@@H]2O` , if possible. 12.8 µM (inactive)

Also OC(CN1CCCCC1)c1ccc(/C=C/c2ccc(Cl)cc2)cc1 (centres undefined) , if possible. > 100 µM (inactive)

Also `CCN(CC)CCN(/C(=N/c1ccccc1)N1CCOCC1)c1ccccc1` , if possible. > 100 µM (inactive)
